mortality at 0.1 % values for the molecules below.
system: peach aphids (Myzus persicae); experiment: Myzus test; format: in vivo; conditions: Myzus persicae, 144 h; active compound concentration 0.1%, after 6 days; read-out: destruction in %
State the result as a value with its unit after it.

Some solved cases for reference:
molecule: CC(C)(C)C1COC2(CCC(c3ccc(C4COC(c5c(F)cccc5F)=N4)cc3)CC2)O1 (centres unmarked)
experimental-result: 90%

molecule: CCCCCCCCCC1COC2(CCC(c3ccc(C4COC(c5c(F)cccc5F)=N4)cc3)CC2)O1 (centres unmarked)
experimental-result: 90%

molecule: Fc1cccc(F)c1C1=NC(c2ccc(C3CCC(=NOCc4ccc(Cl)cc4Cl)CC3)cc2)CO1 (centres unmarked)
experimental-result: 80%

molecule: CC(C)ON=C1CCC(c2ccc(C3COC(c4c(F)cccc4F)=N3)cc2)CC1 (centres unmarked)
experimental-result: 100%

Could you now consider this next molecule?
## Task Query (molecule): CCCCCCCC1COC2(CCC(c3ccc(C4COC(c5c(F)cccc5F)=N4)cc3)CC2)O1 (centres unmarked) ; field requested: mortality at 0.1 %
## Result 90%

====

Test: logp: n-octanol/water partition coefficient by reversed phase HPLC
Format: physicochemical
Conditions: h2o/ch3cn, B isomer (possible geometric isomer), read-out: logp (logarithm to base ten of the n-octanol/water partition coefficient)
Text: *) logp: Logarithm to base ten of the n-octanol/water partition coefficient, determined by reversed phase HPLC analysis using H2 O/CH3 CN. *^) logp: Logarithm to base ten of the noctanol/water partition coefficient, determined by reversed phase HPLC analysis using H2
chromatographic logP values for the molecules below.
// no unit string in output, number only

molecule: Fc1cccc(F)c1C1=NC(c2ccc(C3CCC4(CC3)OCC(c3ccc(Br)cc3)O4)cc2)CO1 (stereo not shown)
parameter-measured: chromatographic logP
experimental-result: 5.51

## Task Query (molecule): Fc1cccc(F)c1C1=NC(c2ccc(C3CCC4(CC3)OCC(COc3ccccc3)O4)cc2)CO1 (stereo not shown) ; field requested: chromatographic logP
## Result 4.75

## Task Please answer likewise for COCC1COC2(CCC(c3ccc(C4COC(c5c(F)cccc5F)=N4)cc3)CC2)O1 (stereo not shown)
## Result 3.6

## Task Please answer likewise for Cc1cc(C)cc(OCC2COC3(CCC(c4ccc(C5COC(c6c(F)cccc6F)=N5)cc4)CC3)O2)c1 (stereo not shown)
## Result 5.48

## Task Please answer likewise for CC1CCOC2(CCC(c3ccc(C4COC(c5c(F)cccc5F)=N4)cc3)CC2)O1 (stereo not shown)
## Result 3.98

## Task Please answer likewise for CC1CC(C)(C)OC2(CCC(c3ccc(C4COC(c5c(F)cccc5F)=N4)cc3)CC2)O1 (stereo not shown)
## Result 5.19

## Task Please answer likewise for CCCCCCCCCC1COC2(CCC(c3ccc(C4COC(c5c(F)cccc5F)=N4)cc3)CC2)O1 (stereo not shown)
## Result 7.2

====

system: mustard beetle larvae (Phaedon cochleariae); experiment: Phaedon larvae test; format: in vivo; details: Phaedon cochleariae, 168 h; active compound concentration 0.01%, after 7 days; read-out: destruction in %
parameter-measured: mortality at 0.01 % (%)
Numbers only; they are read as %.

Some solved cases for reference:
compound: CCON=C1CCC(c2ccc(C3COC(c4c(F)cccc4F)=N3)cc2)CC1 (stereo not shown) [Example 6]
experimental-result: 100
--
compound: COC1(OC)CCC(c2ccc(C3COC(c4c(F)cccc4F)=N3)cc2)CC1 (stereo not shown) [Example 8]
experimental-result: 90
--
compound: CC1OC2(CCC(c3ccc(C4COC(c5c(F)cccc5F)=N4)cc3)CC2)OC1C (stereo not shown) [Example 13]
experimental-result: 100

## Task Query (compound): CCCCCCCCCC1COC2(CCC(c3ccc(C4COC(c5c(F)cccc5F)=N4)cc3)CC2)O1 (stereo not shown) [Example 17] ; field requested: mortality at 0.01 %
## Result 100

## Task Please answer likewise for CCC(C)ON=C1CCC(c2ccc(C3COC(c4c(F)cccc4F)=N3)cc2)CC1 (stereo not shown) [Example 9]
## Result 100

====

assay: logp: n-octanol/water partition coefficient by reversed phase HPLC; type: physicochemical; conditions: h2o/ch3cn, read-out: logp (logarithm to base ten of the n-octanol/water partition coefficient)
parameter-measured: chromatographic logP
// no unit string in output, number only

Some solved cases for reference:
molecule: Fc1cccc(F)c1C1=NC(c2ccc(C3CCC(=NOCc4ccccc4Cl)CC3)cc2)CO1 (stereo not shown) [Example 22]
chromatographic logP: 5.21

molecule: O=C1CCC(c2ccc(C3COC(c4c(F)cccc4F)=N3)cc2)CC1 (stereo not shown) [Example 1]
chromatographic logP: 2.28

molecule: Fc1cccc(F)c1C1=NC(c2ccc(C3CCC4(CC3)OCC(c3ccc(Cl)c(Cl)c3)O4)cc2)CO1 (stereo not shown) [Example 60]
chromatographic logP: 5.65

Could you now consider this next molecule?
## Task Query (molecule): COc1ccc(C2COC3(CCC(c4ccc(C5COC(c6c(F)cccc6F)=N5)cc4)CC3)OC2)cc1 (stereo not shown) [Example 44] ; field requested: chromatographic logP
## Result 4.61

====

experiment: logp: n-octanol/water partition coefficient by reversed phase HPLC; type: physicochemical; conditions: h2o/ch3cn, B isomer (possible geometric isomer), read-out: logp (logarithm to base ten of the n-octanol/water partition coefficient)
parameter-measured: chromatographic logP
// no unit string in output, number only

molecule: Fc1cccc(F)c1C1=NC(c2ccc(C3CCC4(CC3)OCC(c3ccccc3)O4)cc2)CO1 (centres unmarked)
chromatographic logP: 4.87

## Task Query (molecule): CC(C)(C)C1COC2(CCC(c3ccc(C4COC(c5c(F)cccc5F)=N4)cc3)CC2)O1 (centres unmarked) ; field requested: chromatographic logP
## Result 5.48

## Task Please answer likewise for CCCCOC1(OCCCC)CCC(c2ccc(C3COC(c4c(F)cccc4F)=N3)cc2)CC1 (centres unmarked)
## Result 6.86

## Task Please answer likewise for Fc1cccc(F)c1C1=NC(c2ccc(C3CCC4(CC3)OCC(Br)(c3ccc(Cl)cc3)O4)cc2)CO1 (centres unmarked)
## Result 6.2

## Task Please answer likewise for CCCCCCCCC1COC2(CCC(c3ccc(C4COC(c5c(F)cccc5F)=N4)cc3)CC2)O1 (centres unmarked)
## Result 7.28

## Task Please answer likewise for Fc1cccc(F)c1C1=NC(c2ccc(C3CCC4(CC3)OCC(c3c(F)cccc3F)O4)cc2)CO1 (centres unmarked)
## Result 4.86

## Task Please answer likewise for CCCCCCCC1COC2(CCC(c3ccc(C4COC(c5c(F)cccc5F)=N4)cc3)CC2)O1 (centres unmarked)
## Result 6.31

## Task Please answer likewise for CCCCC1COC2(CCC(c3ccc(C4COC(c5c(F)cccc5F)=N4)cc3)CC2)O1 (centres unmarked)
## Result 5.4

====

test: logp: n-octanol/water partition coefficient by reversed phase HPLC; assay type: physicochemical; settings: h2o/ch3cn, read-out: logp (logarithm to base ten of the n-octanol/water partition coefficient)
parameter-measured: chromatographic logP

compound: Fc1cccc(F)c1C1=NC(c2ccc(C3CCC4(CC3)OCC(c3cccc(Cl)c3)O4)cc2)CO1 (stereo not shown)
chromatographic logP: 5.22
--
compound: CON=C1CCC(c2ccc(C3COC(c4c(F)cccc4F)=N3)cc2)CC1 (stereo not shown)
chromatographic logP: 3.6
--
compound: OC1CCC(c2ccc(C3COC(c4c(F)cccc4F)=N3)cc2)CC1 (single isomer, unassigned) [Example 2]
chromatographic logP: 2.53
--
compound: CCON=C1CCC(c2ccc(C3COC(c4c(F)cccc4F)=N3)cc2)CC1 (stereo not shown)
chromatographic logP: 4
--
compound: CCC(C)ON=C1CCC(c2ccc(C3COC(c4c(F)cccc4F)=N3)cc2)CC1 (stereo not shown)
chromatographic logP: 4.96
--
compound: Fc1cccc(F)c1C1=NC(c2ccc(C3CCC4(CC3)OCCO4)cc2)CO1 (stereo not shown)
chromatographic logP: 3.46
--
compound: Fc1cccc(F)c1C1=NC(c2ccc(C3CCC4(CC3)OCC(c3ccccc3Cl)O4)cc2)CO1 (stereo not shown)
chromatographic logP: 5.6
--
compound: CC1COC2(CCC(c3ccc(C4COC(c5c(F)cccc5F)=N4)cc3)CC2)O1 (stereo not shown)
chromatographic logP: 3.89

## Task Query (compound): CCCCCCCCCCCCCCCC1COC2(CCC(c3ccc(C4COC(c5c(F)cccc5F)=N4)cc3)CC2)O1 (stereo not shown) ; field requested: chromatographic logP
## Result 9

## Task Please answer likewise for O=C1CCC(c2ccc(C3COC(c4c(F)cccc4Cl)=N3)cc2)CC1 (stereo not shown)
## Result 3.09

## Task Please answer likewise for CC1(C)COC2(CCC(c3ccc(C4COC(c5c(F)cccc5F)=N4)cc3)CC2)OC1 (stereo not shown)
## Result 4.5

## Task Please answer likewise for CC(C)(C)c1ccc(C2COC3(CCC(c4ccc(C5COC(c6c(F)cccc6F)=N5)cc4)CC3)O2)cc1 (stereo not shown)
## Result 6.16

## Task Please answer likewise for C=CCOCC1COC2(CCC(c3ccc(C4COC(c5c(F)cccc5F)=N4)cc3)CC2)O1 (stereo not shown)
## Result 4.21

Provenance of the data: patent US6015823A
